// provenance: BindingDB's records for patent US20250313563

The following molecules each carry a recorded IC50 for Glycogen synthase kinase-3 alpha (Homo sapiens).

Recall the recorded IC50 for CC[C@@]1(c2cccc(C(F)(F)F)c2)C2=CN=NC2NC2=C1C(=O)N(c1ccccc1C)CC2 (stereo partly specified) with Glycogen synthase kinase-3 alpha (Homo sapiens) and state it.
Sequence (P49840 whole entry): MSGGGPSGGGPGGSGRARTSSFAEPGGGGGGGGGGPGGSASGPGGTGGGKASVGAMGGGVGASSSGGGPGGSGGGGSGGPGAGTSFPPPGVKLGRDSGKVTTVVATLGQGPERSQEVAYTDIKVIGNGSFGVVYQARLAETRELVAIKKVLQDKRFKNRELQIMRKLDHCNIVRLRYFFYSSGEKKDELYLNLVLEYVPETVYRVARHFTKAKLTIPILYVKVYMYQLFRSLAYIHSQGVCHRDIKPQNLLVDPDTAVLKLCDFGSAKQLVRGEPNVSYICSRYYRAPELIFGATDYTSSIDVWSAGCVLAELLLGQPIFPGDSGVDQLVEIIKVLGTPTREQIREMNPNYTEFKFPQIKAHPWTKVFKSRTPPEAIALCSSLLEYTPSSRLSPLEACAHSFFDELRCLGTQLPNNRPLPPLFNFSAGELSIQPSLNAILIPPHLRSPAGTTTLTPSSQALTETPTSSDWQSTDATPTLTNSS
> 5000 nM

Recall the recorded IC50 for `CC1(C)CC(=O)C2=C(C1)NC1=C(CN=N1)C21CCN(S(=O)(=O)c2cnn3ccccc23)CC1` with Glycogen synthase kinase-3 alpha (Homo sapiens) and state it.
< 100 nM

Recall the recorded IC50 for CC1N=NC2=C1C1(CCOCC1)C1=C(CC(C)(C)C(F)C1=O)N2 (stereo unspecified) with Glycogen synthase kinase-3 alpha (Homo sapiens) and state it.
100 to 1000 nM

Recall the recorded IC50 for `CC[C@@]1(c2cccc(C(F)(F)F)c2)C2=C(N=NC2)NC2=C1C(=O)N(Cc1ccccc1)C2` with Glycogen synthase kinase-3 alpha (Homo sapiens) and state it.
1000 to 5000 nM

Recall the recorded IC50 for CCC1(c2cccc(-c3ccnc(C)c3OC)c2)C2=CN=NC2NC2=C1C(=O)NC(C)(C)C2 (stereo unspecified) with Glycogen synthase kinase-3 alpha (Homo sapiens) and state it.
< 100 nM

Recall the recorded IC50 for `CC1(C)CC(=O)C2=C(C1)NC1=C(CN=N1)[C@]21CCc2c(F)cccc21` with Glycogen synthase kinase-3 alpha (Homo sapiens) and state it.
< 100 nM

Recall the recorded IC50 for CCC1(c2cccc(-c3ccnc(CCO)c3)c2)C2=CN=NC2NC2=C1C(=O)CC(C)(C)C2 (stereo unspecified) with Glycogen synthase kinase-3 alpha (Homo sapiens) and state it.
< 100 nM

Recall the recorded IC50 for CC[C@]1(c2cccc(N(C)c3ccc(F)nc3)c2)C2=CN=NC2NC2=C1C(=O)CC(C)(C)C2 (stereo partly specified) with Glycogen synthase kinase-3 alpha (Homo sapiens) and state it.
< 100 nM

Recall the recorded IC50 for CC1(C)CC(=O)C2=C(C1)NC1=C(CN=N1)C21COC2(CN(C(=O)C(F)F)C2)C1 (stereo unspecified) with Glycogen synthase kinase-3 alpha (Homo sapiens) and state it.
< 100 nM

Recall the recorded IC50 for `CC[C@H]1C[C@]2(CCO1)C1=C(N=NC1)NC1=C2C(=O)CC(C)(C)C1` with Glycogen synthase kinase-3 alpha (Homo sapiens) and state it.
100 to 1000 nM

Recall the recorded IC50 for Cn1ccc(S(=O)(=O)N2CCC[C@]3(CC2)C2=CN=NC2NC2=C3C(=O)CC(C)(C)C2)n1 (stereo partly specified) with Glycogen synthase kinase-3 alpha (Homo sapiens) and state it.
< 100 nM

Recall the recorded IC50 for CCC1(c2ccccc2)C2=C(N=NC2)NC2=C1C(=O)CC1(CCC1)C2 (stereo unspecified) with Glycogen synthase kinase-3 alpha (Homo sapiens) and state it.
100 to 1000 nM

Recall the recorded IC50 for CCC1(c2cccc(-c3cnc4n3CCCC4)c2)C2=CN=NC2NC2=C1C(=O)CC(C)(C)C2 (stereo unspecified) with Glycogen synthase kinase-3 alpha (Homo sapiens) and state it.
< 100 nM

Recall the recorded IC50 for CC[C@@]1(c2cccc(-c3ccnc(C)c3)c2)C2=CN=NC2NC2=C1C(=O)N[C@]1(CCOC1)C2 (stereo partly specified) with Glycogen synthase kinase-3 alpha (Homo sapiens) and state it.
1000 to 5000 nM

Recall the recorded IC50 for CC1(C)CC(=O)C2=C(C1)NC1=C(CN=N1)C2(C)c1cccc(-c2ccncc2)c1 (stereo unspecified) with Glycogen synthase kinase-3 alpha (Homo sapiens) and state it.
< 100 nM

Recall the recorded IC50 for CC[C@@]1(c2ccccc2)C2=CN=NC2NC2=C1C(=O)[C@@H](F)C(C)(C)C2 (stereo partly specified) with Glycogen synthase kinase-3 alpha (Homo sapiens) and state it.
100 to 1000 nM

Recall the recorded IC50 for CCC1(c2cccc(S(=O)(=O)C3CC3)c2)C2=CN=NC2NC2=C1C(=O)CC(C)(C)C2 (stereo unspecified) with Glycogen synthase kinase-3 alpha (Homo sapiens) and state it.
< 100 nM

Recall the recorded IC50 for `C[C@@H]1C[C@@]2(CCN1S(=O)(=O)c1ccn(C)n1)C1=C(N=NC1)NC1=C2C(=O)CC(C)(C)C1` with Glycogen synthase kinase-3 alpha (Homo sapiens) and state it.
100 to 1000 nM

Recall the recorded IC50 for CC[C@]1(c2cccc(-c3cn(C)nc3C)c2)C2=C(CC(C)(C)NC2=O)NC2N=NC(C(F)F)=C21 (stereo partly specified) with Glycogen synthase kinase-3 alpha (Homo sapiens) and state it.
100 to 1000 nM

Recall the recorded IC50 for CC[C@@]1(c2cccc(-c3ccncc3)c2)C2=C(CC(C)(C)CC2=O)NC2N=NC(C)=C21 (stereo partly specified) with Glycogen synthase kinase-3 alpha (Homo sapiens) and state it.
< 100 nM

Recall the recorded IC50 for CC[C@]1(c2cccc(C(F)(F)F)c2)C2=CN=NC2NC2=C1C(=O)N(C)CC2 (stereo partly specified) with Glycogen synthase kinase-3 alpha (Homo sapiens) and state it.
< 100 nM

Recall the recorded IC50 for `CC[C@@]1(c2cccc(C(F)(F)F)c2)C2=C(N=NC2)NC2=C1C(=O)NC2` with Glycogen synthase kinase-3 alpha (Homo sapiens) and state it.
100 to 1000 nM

Recall the recorded IC50 for CCC1(c2cccc(-c3cc(OC)ncn3)c2)C2=CN=NC2NC2=C1C(=O)CC(C)(C)C2 (stereo unspecified) with Glycogen synthase kinase-3 alpha (Homo sapiens) and state it.
< 100 nM

Recall the recorded IC50 for `CC1(C)CC(=O)C2=C(C1)NC1=C(CN=N1)[C@@]21CCO[C@@H](C(F)(F)F)C1` with Glycogen synthase kinase-3 alpha (Homo sapiens) and state it.
1000 to 5000 nM

Recall the recorded IC50 for CC[C@@]1(c2cccc(-c3ccnc(C)c3)c2)C2=CN=NC2NC2=C1C(=O)NC1(CCC1)C2 (stereo partly specified) with Glycogen synthase kinase-3 alpha (Homo sapiens) and state it.
< 100 nM

Recall the recorded IC50 for `CO[C@H]1C[C@@]2(C1)C1=C(N=NC1)NC1=C2C(=O)CC(C)(C)C1` with Glycogen synthase kinase-3 alpha (Homo sapiens) and state it.
> 5000 nM
